biological target: Recombinant human DPP4 (R&D systems, #9168-SE) (human, UniProt P27487 29-766); assay: cell-based or functional assay
Sequence (P27487 29-766 limits assumed): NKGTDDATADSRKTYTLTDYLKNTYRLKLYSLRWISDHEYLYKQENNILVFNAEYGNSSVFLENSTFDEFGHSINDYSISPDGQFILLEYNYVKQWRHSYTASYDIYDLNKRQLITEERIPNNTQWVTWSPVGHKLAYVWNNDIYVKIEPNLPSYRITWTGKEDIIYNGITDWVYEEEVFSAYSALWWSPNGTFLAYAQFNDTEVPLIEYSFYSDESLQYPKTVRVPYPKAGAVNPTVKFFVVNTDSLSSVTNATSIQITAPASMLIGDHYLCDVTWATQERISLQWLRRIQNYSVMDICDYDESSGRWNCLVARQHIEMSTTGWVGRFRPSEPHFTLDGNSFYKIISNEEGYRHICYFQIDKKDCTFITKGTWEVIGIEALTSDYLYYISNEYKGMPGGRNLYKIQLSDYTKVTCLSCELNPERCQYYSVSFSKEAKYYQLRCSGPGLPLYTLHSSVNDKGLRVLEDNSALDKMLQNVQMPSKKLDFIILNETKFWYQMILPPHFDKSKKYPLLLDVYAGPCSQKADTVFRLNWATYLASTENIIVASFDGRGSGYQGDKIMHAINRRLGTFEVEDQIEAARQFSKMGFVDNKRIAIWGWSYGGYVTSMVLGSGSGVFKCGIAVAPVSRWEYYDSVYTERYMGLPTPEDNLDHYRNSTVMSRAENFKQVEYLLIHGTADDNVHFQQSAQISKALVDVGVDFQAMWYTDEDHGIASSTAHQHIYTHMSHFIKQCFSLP
Numbered stars: 1 amine (or outer) side, 2 acyl side, 3 side chain; on linkers, the order of the positions; unused ones are H or OH. Bridge positions count the residues as written; N and C are the ends. * marks the point of attachment. tMeBn(DOTA-PP) = 1,3,5-trimethylbenzylidene, two thioethers to Cys, third CH2 bound to one N of piperazine whose other N bears DOTA, O=C(O)CN1CCN(CC(=O)O)CCN(CC(=O)N2CCN(Cc3cc(C[*:1])cc(C[*:2])c3)CC2)CCN(CC(=O)O)CC1; Hexanoyl = CCCCCC(=O)*
OBSERVED_PROPERTY: pIC50 (DPP4)

Hexanoyl-CPPTQFCD-NH2 (linker 1-7 via tMeBn(DOTA-PP); SMILES CCCCCC(=O)N[C@H]1CSCc2cc(cc(CN3CCN(C(=O)CN4CCN(CC(=O)O)CCN(CC(=O)O)CCN(CC(=O)O)CC4)CC3)c2)CSC[C@@H](C(=O)N[C@@H](CC(=O)O)C(N)=O)NC(=O)[C@H](Cc2ccccc2)NC(=O)[C@H](CCC(N)=O)NC(=O)[C@H]([C@@H](C)O)NC(=O)[C@@H]2CCCN2C(=O)[C@@H]2CCCN2C1=O) [Hex-[Cys(tMeBn(DOTA-PP))-Pro-Pro-Thr-Gln-Phe-Cys]-Asp-NH2] : < 6 pIC50
